Data origin: patent US20190307836A1

# measurement-target: T1, Recombinant human CD137 (R&D systems) (human, UniProt Q07011 24-186, biotinylated with EZ-Link Sulfo-NHS-LC-LC-Biotin)
# T1 construct: Bought protein; also called human CD137 protein; TNFRSF9
# protocol-summary: SPR (Biacore), biotinylated human CD137 on streptavidin chip
pKd: −log10 of the molar value. Starred links: 1 amine or outer side, 2 acyl side, 3 side chain; linkers in the order of their positions; H or OH if unused. Positions of bridges follow the written chain, without caps; N, C: chain ends. Non-standard residues stand in square brackets, D forms with d. Chains are numbered I, II in the order given. No end group written: not given here. *: point of attachment. TATA = O=C(CC[*:1])N1CN(C(=O)CC[*:2])CN(C(=O)CC[*:3])C1; 1Nal = N[C@@H](Cc1cccc2ccccc12)C(=O)O; Hyp = O=C(O)[C@@H]1C[C@@H](O)CN1; hArg = N=C(N)NCCCC[C@H](N)C(=O)O; tBuAla = CC(C)(C)C[C@H](N)C(=O)O; Nle = CCCC[C@H](N)C(=O)O; Pent4ynoyl = C#CCCC(=O)*
measurement-kind: pKd

binder	measurement-kind	measured-number
heterotandem bicyclic peptide complex BCY9759 (BCY7732: N-terminal acetyl; Nle12; C-terminal Dap (diaminopropionic acid) bearing the linker; Ci, Cii, Ciii on TATA scaffold; BCY8116: linker on N-terminus; 1Nal2, dD3, HArg5, HyP11; Ci, Cii, Ciii on TATA scaffold) peptide 1: CPXDCMXDWSTPXWC peptide 2: ACIEEGQYCFADPYXC	pKd	7.35
heterotandem bicyclic peptide complex BCY10571 (linker I:1-I:5-I:15, II:1-II:8-II:15 via TATA; not fully specified (C-terminus, bridges); also: chains joined by PEG5 linker on chain 1 N-terminus, triazole to K(PYA)) peptide 1: CP[1Nal][dD]CM[hArg]DWSTP[Hyp]WC peptide 2: Ac-C[tBuAla]PK(Pent4ynoyl)[dA]PYCFADPY[Nle]CA	pKd	7.92
heterotandem bicyclic peptide complex BCY9758 (BCY7732: N-terminal acetyl; Nle12; C-terminal Dap (diaminopropionic acid) bearing the linker; Ci, Cii, Ciii on TATA scaffold; BCY6099: N-terminal [B-Ala]-[Sar10]- (linker on N-terminus); HArg in the A-[HArg]-D extension; HyP1, dD10, HArg12; Ci, Cii, Ciii on TATA scaffold) peptide 1: AXDCXLVNPLCLHPDWXC peptide 2: ACIEEGQYCFADPYXC	pKd	6.72
heterotandem bicyclic peptide complex BCY9351 (BCY8045: N-terminal acetyl; D-Ala8, Nle12; C-terminal Dap (diaminopropionic acid) bearing the linker; Ci, Cii, Ciii on TATA scaffold; BCY8846: N-terminal [PYA]-[B-Ala]-[Sar10]- (linker on PYA); 1Nal2, dD3, HArg5, HyP11; Ci, Cii, Ciii on TATA scaffold) peptide 1: CPXDCMXDWSTPXWC peptide 2: ACIEEGQYCFADPYXC	pKd	5.44
heterotandem bicyclic peptide complex BCY8942 (BCY8045: N-terminal acetyl; D-Ala8, Nle12; C-terminal Dap (diaminopropionic acid) bearing the linker; Ci, Cii, Ciii on TATA scaffold; BCY6169: N-terminal [PYA]-[B-Ala]-[Sar10]- (linker on PYA); HArg in the A-[HArg]-D extension; HyP1, dD10, HArg12; Ci, Cii, Ciii on TATA scaffold) peptide 1: AXDCXLVNPLCLHPDWXC peptide 2: ACIEEGQYCFADPYXC	pKd	6.07
